I'd be grateful if you could share measured pKi for these entries.
// returns pKi (minus log10 of molar concentration), number only

**Query** Item: N=c1scc(-c2ccccc2)n1CC(=O)N1CCOCC1 Test system: Cathepsin K (Homo sapiens, UniProt P43235) Read-out: pKi Value: ?
**Result** 4.30

**Query** Item: N=c1scc(-c2ccc(Cl)cc2)n1CC(=O)N1CCOCC1 Test system: Cathepsin K (Homo sapiens, UniProt P43235) Read-out: pKi Value: ?
**Result** 4.35

**Query** Item: Cc1ccc(-c2csc(=N)n2CC(=O)N2CCOCC2)cc1 Test system: Cathepsin K (Homo sapiens, UniProt P43235) Read-out: pKi Value: ?
**Result** 4.29

**Query** Item: CC(=O)N1CCN(C(=O)Cn2c(-c3ccc(C)cc3)csc2=N)CC1 Test system: Cathepsin K (Homo sapiens, UniProt P43235) Read-out: pKi Value: ?
**Result** 4.62

**Query** Item: Cc1ccc(-c2csc(=N)n2CC(=O)N2CCN(c3ccccc3)CC2)cc1 Test system: Cathepsin K (Homo sapiens, UniProt P43235) Read-out: pKi Value: ?
**Result** 4.97

**Query** Item: N=c1scc(-c2ccc(Cl)cc2)n1CC(=O)N1CCN(c2ccccc2)CC1 Test system: Cathepsin K (Homo sapiens, UniProt P43235) Read-out: pKi Value: ?
**Result** 4.95

====

I'd be grateful if you could share measured Ki for these entries.
# SYSTEM: Proto-oncogene tyrosine-protein kinase Src (Homo sapiens, UniProt P12931)
# Sequence (P12931 2-536 limits assumed): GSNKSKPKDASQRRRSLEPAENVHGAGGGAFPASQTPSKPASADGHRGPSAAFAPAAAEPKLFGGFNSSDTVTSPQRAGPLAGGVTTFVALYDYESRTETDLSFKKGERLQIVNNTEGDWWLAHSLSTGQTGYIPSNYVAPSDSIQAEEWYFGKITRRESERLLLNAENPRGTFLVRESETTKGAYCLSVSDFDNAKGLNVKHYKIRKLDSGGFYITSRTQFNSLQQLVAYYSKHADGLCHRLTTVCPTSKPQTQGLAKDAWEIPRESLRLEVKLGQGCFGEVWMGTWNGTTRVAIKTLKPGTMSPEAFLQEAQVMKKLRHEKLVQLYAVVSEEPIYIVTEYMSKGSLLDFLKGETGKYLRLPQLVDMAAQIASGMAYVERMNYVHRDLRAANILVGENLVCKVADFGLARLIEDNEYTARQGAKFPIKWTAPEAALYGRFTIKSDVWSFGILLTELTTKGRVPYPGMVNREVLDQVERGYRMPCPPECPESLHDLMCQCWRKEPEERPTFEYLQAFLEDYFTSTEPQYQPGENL
Kindly provide the numeric value in µM only, without the unit symbol.

**Query** Endpoint output: Ki of CN1CCN(C(=O)Cn2c(-c3ccccc3)csc2=N)CC1 . Value?
**Result** 7.91

**Query** Endpoint output: Ki of Cc1ccc(-c2csc(=N)n2CC(=O)N2CCOCC2)cc1 . Value?
**Result** 13.3

**Query** Endpoint output: Ki of Cc1ccc(-c2csc(=N)n2CC(=O)N2CCN(c3ccccc3)CC2)cc1 . Value?
**Result** 13.5

====

# Test system: SK-MEL-5
# ASSAY EXPLANATION: Growth inhibition of human SK-MEL-5 cells assessed as cell growth at 10^-5 M after 48 hrs by sulforhodamine B assay relative to control
# Assay type: functional
# RECORDED CONDITIONS: SK-MEL-5, 48 h, read-out: Activity
MEASURED ATTRIBUTE: growth at 10 µM
Put your answer as a value accompanied by its unit after it.

**Query** Endpoint output: growth at 10 µM of Cc1ccc(-c2csc(=N)n2CC(=O)N2CCN(c3ccccc3)CC2)cc1 . Value?
**Result** 88.2%

**Query** Endpoint output: growth at 10 µM of N=c1scc(-c2ccc(Cl)cc2)n1CC(=O)N1CCN(c2ccccc2)CC1 . Value?
**Result** 91.9%

**Query** Endpoint output: growth at 10 µM of CN1CCN(C(=O)Cn2c(-c3ccccc3)csc2=N)CC1 . Value?
**Result** 88.2%

**Query** Endpoint output: growth at 10 µM of CC(=O)N1CCN(C(=O)Cn2c(-c3ccccc3)csc2=N)CC1 . Value?
**Result** 90.2%

**Query** Endpoint output: growth at 10 µM of CC(=O)N1CCN(C(=O)Cn2c(-c3ccc(C)cc3)csc2=N)CC1 . Value?
**Result** 92.1%
